- TARGET_DESC: Induced myeloid leukemia cell differentiation protein Mcl-1 (Homo sapiens)
- EXPERIMENTAL_DETAILS: MCL1 binding to BIM-BH3 peptide, inhibitors, dose response, biochemical, fluorescence polarization, GST-MCL1, FITC-BIM-BH3, powder samples (AID 2791)
Activity calls are given as the source filed them.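 The calls were made as follows: active = blockers of MCL1 binding to BIM peptide with IC50 at or below 10 micromolar; inactive = IC50 above 10 micromolar.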
Hello, when you answer, please use one of the following outcomes: 1 (yes) = active, 0 (no) = inactive

Sample answers from the record:
INSERT INTO measurements (input_smiles, target_desc, assigned_label) VALUES
  ('C=CCN=c1scc(-c2ccco2)n1/N=C/c1ccc(O)c(O)c1O', 'Induced myeloid leukemia cell differentiation protein Mcl-1 (Homo sapiens)', '1 (yes)'),
  ('Nc1ccc(C(=O)NN=Cc2cc(N=Nc3cccc4ccccc34)ccc2O)cc1', 'Induced myeloid leukemia cell differentiation protein Mcl-1 (Homo sapiens)', '1 (yes)'),
  ('O=C(NN=Cc1ccc(-c2ccc(S(=O)(=O)Nc3ncccn3)cc2)o1)c1cc2ccccc2cc1O', 'Induced myeloid leukemia cell differentiation protein Mcl-1 (Homo sapiens)', '0 (no)'),
  ('O=C1COc2ccc(C(=O)COC(=O)/C=C/c3ccc(Br)o3)cc2N1', 'Induced myeloid leukemia cell differentiation protein Mcl-1 (Homo sapiens)', '0 (no)'),
  ('COc1ccc(Cc2nnc(NC(=O)Cc3cccs3)s2)cc1OC', 'Induced myeloid leukemia cell differentiation protein Mcl-1 (Homo sapiens)', '1 (yes)'),
  ('Cc1cccc(NC(=O)CNC(=O)c2cccc(-n3cccc3)c2)c1C', 'Induced myeloid leukemia cell differentiation protein Mcl-1 (Homo sapiens)', '0 (no)');

Please look at the following compound next.
Could you kindly confirm the outcome this assay logged for COC(=O)c1ccccc1NCc1cc(=O)oc2cc(O)c(O)cc12 ?
1 (yes)

###

- TARGET_DESC: Induced myeloid leukemia cell differentiation protein Mcl-1 (Homo sapiens) (UniProt Q07820)
- Sequence (Q07820 whole entry, looked up): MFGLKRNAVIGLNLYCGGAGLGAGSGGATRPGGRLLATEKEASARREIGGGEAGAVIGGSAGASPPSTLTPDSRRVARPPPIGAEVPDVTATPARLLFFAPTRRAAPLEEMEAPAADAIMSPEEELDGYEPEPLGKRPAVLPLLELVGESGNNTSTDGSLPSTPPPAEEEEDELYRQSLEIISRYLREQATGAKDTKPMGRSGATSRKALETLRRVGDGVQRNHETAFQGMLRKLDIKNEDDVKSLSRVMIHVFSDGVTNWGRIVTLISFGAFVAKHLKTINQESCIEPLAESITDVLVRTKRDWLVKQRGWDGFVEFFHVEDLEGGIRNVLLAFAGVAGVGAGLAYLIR
- EXPERIMENTAL_DETAILS: MCL1 binding to BIM-BH3 peptide, inhibitors, dose response, biochemical, fluorescence polarization, GST-MCL1, FITC-BIM-BH3, powder samples (AID 2791)
Active and inactive are the calls of the source.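 Rule for the calls: active = blockers of MCL1 binding to BIM peptide with IC50 at or below 10 micromolar; inactive = IC50 above 10 micromolar.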
Hello, when you answer, please use one of the following outcomes: active, inactive

Sample answers from the record:
INSERT INTO assay_data (input_smiles, assigned_label) VALUES
  ('C=CCn1c(SCC(=O)c2ccc(O)c(O)c2)nnc1-c1cccnc1', 'active'),
  ('CCc1sc(C(C2C(=O)CC(C)(C)CC2=O)C2C(=O)CC(C)(C)CC2=O)cc1[N+](=O)[O-]', 'inactive'),
  ('COc1ccc(-n2cccc2/C=C2\C(=N)N3N=C(c4ccco4)SC3=NC2=O)cc1', 'active'),
  ('CCOc1ccc(NC(=O)c2cccc(-n3cccc3)c2)cc1S(=O)(=O)N1CCOCC1', 'inactive'),
  ('O=C(NN=Cc1cccc(F)c1)c1cc(-c2ccco2)nc2ccccc12', 'active');

Please look at the following compound next.
Could you kindly confirm the outcome this assay logged for COc1ccc(NC(=O)CN(C)C(=O)c2cc3c(s2)CCC3)cc1 ?
inactive
